Numbers sourced from PubChem BioAssay (EPA / NIEHS).

- Read-out: CD40, CD40 (gene 958)
- ASSAY INFO: BSK_SAg_CD40: BioMAP Diversity Plus: SAg Assay for CD40 Biomarker Activity (AID 2283088)
- PROTOCOL CONDITIONS: primary human HUVEC with PBMC; actives raise or lower the signal
Active and inactive are the calls of the source. Rule for the calls: active = hit-call score of the fitted dose curve at least 0.9, where 1 is the maximum; inactive = score below 0.9.
Could you please pick one outcome from this set? active, inactive

Example entries and their recorded answers appear below.
CN=C=S    active
Clc1nc(Cl)nc(Nc2ccccc2Cl)n1    inactive
CC(C)=CC1C(C(=O)OCc2coc(Cc3ccccc3)c2)C1(C)C (stereo not given)    inactive
CCOc1cc(C(C)(C)C)ccc1C1COC(c2c(F)cccc2F)=N1 (stereo not given)    active
Cc1ccc(N=CN(C)C=Nc2ccc(C)cc2C)c(C)c1    active

Shifting focus to the compound that follows.
## Input Which result was noted for this compound in the test: CCN(CC)C(=O)C(C)Oc1cccc2ccccc12 (stereo not given)
## Output inactive
